# ASSAY OVERVIEW: folding enthalpy; higher = less favourable; fluorescence melt of hairpins on a sequencing array, two-state fit
# STATED CONDITIONS: sodium 0.088 M
Items are presented alongside their recorded folding enthalpy.
Quick note: number first, unit second.

See these solved cases before continuing.
GATCCGGACGCGGATC ((((((....)))))) ... -38 kcal/mol
GCCTCAGGAAACTGAGAC (.(((((....))))).) ... -20.8 kcal/mol
GCAGACGAAAGTCGTGC ((((((....))).))) ... -24.1 kcal/mol
GATCGGGTCCCCGATC ((((((....)))))) ... -40.4 kcal/mol
GCGCACGGAAACGCACGC (((..((....))..))) ... -31.2 kcal/mol
GGCCCCGAAAGGGGTGCC ((((((....)))..))) ... -12.1 kcal/mol
GTCTTACGAAAGTAGGAC (((.(((....))).))) ... -28.2 kcal/mol
GCGCAAGGAAACTCGCAC (.((.((....)).)).) ... -13.1 kcal/mol
GCTGATGGAAACACCAGC ((((.((....)).)))) ... -30.8 kcal/mol
GAATGCGAAAGCATTC ((((((....)))))) ... -27.6 kcal/mol

Please look at this sequence and report its folding enthalpy: GCGCTCGAAAGAGCACGC ((((((....)))..)))
-16.7 kcal/mol

Please look at this sequence and report its folding enthalpy: GCACTGCGAAAGCGGGGC ((.(.((....)).).))
-33.5 kcal/mol

----------
# ASSAY OVERVIEW: melting temperature; fluorescence melt of hairpins on a sequencing array, two-state fit, raised by 9.35 °C to match UV melts
# STATED CONDITIONS: sodium 0.088 M
Rule: true (1) for Tm not less than 50 °C, false (0) for anything less.

TGGATGAAAATCCA (((((....))))) ... false (0)
GATCGTAAGACGATC ((((((...)))))) ... true (1)
GGGACGGGAAACCGTTCC ((.((((....)))).)) ... true (1)
GATCCGGATACGGATC ((((((....)))))) ... true (1)
AGCTTGAAAAAGCT (((((....))))) ... false (0)
GCTAAGCGAAAGCTGAGC (((.(((....))).))) ... true (1)
GCTCCGGGAAACCAGAGC ((((.((....)).)))) ... false (0)
GTCTATGCGAAAGCAGAC (((..(((....)))))) ... false (0)

Could you tell me if the measured Tm of GGGCATGGAAACGTGCTC (.(((.(....).))).) reaches 50 °C or more?
false (0)

----------
# ASSAY OVERVIEW: melting temperature; fluorescence melt of hairpins on a sequencing array, two-state fit, raised by 9.35 °C to match UV melts
# STATED CONDITIONS: sodium 0.088 M
RECORDED ENDPOINT: Tm (°C)
Record the value in °C, omitting the unit from your answer.

See these solved cases before continuing.
ACCCAGAAATGGGT (((((....))))) ... 47.9
GATCTAGTTCTAGATC ((((((....)))))) ... 46.6
GCACTGCGAAAGCCGGGC ((.(.((....)).).)) ... 57.1
GATGGCGGAAACGTCATC ((((.((....)).)))) ... 55.3
GATCAATATGTTGATC ((((((....)))))) ... 49

Proceed to the following item.
Please look at this sequence and report its Tm: GAAACCGAAAGGTTCTTC ((((((....)))..)))
54.4
